# Tested on: biotinyl-Trp-oxazolone
# assay_method_text: self-aminoacylation, catalytic enhancement (BWO) (fold over background); higher = more active; k-Seq, kA / k0A0; sequences stand for … in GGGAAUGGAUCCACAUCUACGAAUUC…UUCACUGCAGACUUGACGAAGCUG
Fewer inactive variants are shown than the library holds.
Rule: self-aminoacylation under 1 gives rule not met, otherwise rule met.

For orientation, consider the following solved cases.
Query: # check: self-aminoacylation of CUAGUUCAAUCAAUCGGUCUG [Fam1A.1 aminoacylation ribozyme variant] is greater than or equal to 1
Reply: rule met

Query: # check: self-aminoacylation of CUAUUUCGAACAAUCGGUCUG [Fam1A.1 aminoacylation ribozyme variant] is greater than or equal to 1
Reply: rule not met

Query: # check: self-aminoacylation of AAGUAUGCUAAUAGUUGCAAG [Fam3.1 aminoacylation ribozyme variant] is greater than or equal to 1
Reply: rule met

Next:
Query: # check: self-aminoacylation of CUACUUCAAACAAUCGCUCUU [Fam1A.1 aminoacylation ribozyme variant] is greater than or equal to 1
Reply: rule not met

Query: # check: self-aminoacylation of AAGUUUGCUAAUAGACGGAAG [Fam3.1 aminoacylation ribozyme variant] is greater than or equal to 1
Reply: rule not met

Query: # check: self-aminoacylation of CUACUUCCAACAAUCCGUCUG [Fam1A.1 aminoacylation ribozyme variant] is greater than or equal to 1
Reply: rule not met

Query: # check: self-aminoacylation of CUACUUCAAACAAUCGGUCCA [Fam1A.1 aminoacylation ribozyme variant] is greater than or equal to 1
Reply: rule not met

Query: # check: self-aminoacylation of UUGUUUGCUAAUAGUCGCAAG [Fam3.1 aminoacylation ribozyme variant] is greater than or equal to 1
Reply: rule met

Query: # check: self-aminoacylation of CCACACUUCGAGCAAUCAGUC [Fam1B.1 aminoacylation ribozyme variant] is greater than or equal to 1
Reply: rule not met

Query: # check: self-aminoacylation of AUUACCCUGGUCAUCGGGUGG [Fam2.1 aminoacylation ribozyme variant] is greater than or equal to 1
Reply: rule met

Query: # check: self-aminoacylation of CCUCAUUUCAAGCAAUCGGUC [Fam1B.1 aminoacylation ribozyme variant] is greater than or equal to 1
Reply: rule met

Query: # check: self-aminoacylation of AAGUUUGCUAAUAGUGGCAAG [Fam3.1 aminoacylation ribozyme variant] is greater than or equal to 1
Reply: rule not met

Query: # check: self-aminoacylation of AUGUUUGCUGAUAGUCGCAAG [Fam3.1 aminoacylation ribozyme variant] is greater than or equal to 1
Reply: rule met

Query: # check: self-aminoacylation of CUACUUCAAACCAUCGCUCUG [Fam1A.1 aminoacylation ribozyme variant] is greater than or equal to 1
Reply: rule not met

The measurements presented in this section are drawn from the supplement of paper PMC9233669.
